Tested on: UACC-62 melanoma
assay_details: NCI tumour cell line growth inhibition, 48 h
experimental_readout: TGI

Answered examples (3):
CC(C)(Br)C(=O)N1CCN(C(c2ccccc2)c2ccccc2)CC1 : > 100 µM
CC(C)OP(=O)(OC(C)C)/C(Cl)=N/Nc1ccc([N+](=O)[O-])cc1 : > 100 µM
OCCN1CCN(CCCN2c3ccccc3Sc3ccc(Cl)cc32)CC1 : 3.29 µM

# `COc1ccc(N=N/C(=N/NC(=O)c2ccc(C)cc2)c2ccc(N(CCC#N)CCC#N)cc2OC)cc1` with UACC-62 melanoma: TGI is > 100 µM

# `Fc1cc2[nH]ncc2c2c3c(c(-c4cn[nH]c4C(F)(F)F)nc12)CCCC3` with UACC-62 melanoma: TGI is 3 µM
